Origin of values: PubChem BioAssay (EPA / NIEHS)

# Read-out: Transforming growth factor beta 1 (TGFb1), TGFB1 (gene 7040)
# Test Details: BSK_KF3CT_TGFb1: BioMAP Diversity Plus: KF3CT Assay for Transforming growth factor beta 1 (TGFb1) Biomarker Activity (AID 2283072)
# Recorded Conditions: primary human keratinocytes with fibroblasts; actives raise or lower the signal
Active and inactive are the calls of the source. Rule for the calls: active = hit-call score of the fitted dose curve at least 0.9, where 1 is the maximum; inactive = score below 0.9.
Parameter Measured: outcome

Reference set, count: 4
compound="CCC(C)Nc1c([N+](=O)[O-])cc(C(C)(C)C)cc1[N+](=O)[O-] (stereo unspecified)" parameter_measured=outcome obs_value=inactive
compound=CCOc1nc(NC)nc(NC(=O)NS(=O)(=O)c2ccccc2C(=O)OC)n1 parameter_measured=outcome obs_value=inactive
compound=O=[N+]([O-])/N=C1\NCCN1Cc1ccc(Cl)nc1 parameter_measured=outcome obs_value=inactive
compound="CC(C)(C)C(O)/C(=C\\c1ccc(Cl)cc1Cl)n1cncn1 (stereo unspecified)" parameter_measured=outcome obs_value=inactive

Would you kindly look at the next entry?
query: Data request, read-out outcome, for `[2H]C1([2H])[n+]2ccccc2-c2cccc[n+]2C1([2H])[2H]`
result: inactive

----------
# Read-out: Macrophage colony-stimulating factor (MCSF), CSF1 (gene 1435)
# Test Details: BSK_LPS_MCSF: BioMAP Diversity Plus: LPS Assay for Macrophage colony-stimulating factor (MCSF) Biomarker Activity (AID 2283083)
# Recorded Conditions: primary human HUVEC with PBMC; actives raise or lower the signal
The source made the active and inactive calls. The calls were made as follows: active = hit-call score of the fitted dose curve at least 0.9, where 1 is the maximum; inactive = score below 0.9.
Result category, one only: label 1 = active, label 0 = inactive

query: Hey, what did the test say about `COC(=O)c1ccccc1S(=O)(=O)NC(=O)Nc1nc(C)nc(OC)n1` ?
result: label 0

query: Hey, what did the test say about CC1(c2ccc(Oc3ccccc3)cc2)OC(=O)N(Nc2ccccc2)C1=O (stereo not given) ?
result: label 1

query: Hey, what did the test say about `Oc1ccc(Cl)cc1Cc1ccccc1` ?
result: label 1

query: Hey, what did the test say about CCOC1Oc2ccc(OS(C)(=O)=O)cc2C1(C)C (stereo not given) ?
result: label 0

query: Hey, what did the test say about `COc1cc(OC)nc(NC(=O)NS(=O)(=O)c2cc(NC=O)ccc2C(=O)N(C)C)n1` ?
result: label 0

query: Hey, what did the test say about `COC(=O)c1ccccc1S(=O)(=O)NC(=O)N(C)c1nc(C)nc(OC)n1` ?
result: label 0

query: Hey, what did the test say about `[2H]C1([2H])[n+]2ccccc2-c2cccc[n+]2C1([2H])[2H]` ?
result: label 0

query: Hey, what did the test say about `CNC(=O)/C=C(\C)OP(=O)(OC)OC` ?
result: label 0

query: Hey, what did the test say about `CN1CSC(=S)N(C)C1` ?
result: label 1

query: Hey, what did the test say about `COC(=O)c1ccccc1CS(=O)(=O)NC(=O)Nc1nc(OC)cc(OC)n1` ?
result: label 0

----------
# Read-out: Vascular cell adhesion molecule 1 (VCAM1), VCAM1 (gene 7412)
# Test Details: BSK_4H_VCAM1: BioMAP Diversity Plus: 4H Assay for Vascular cell adhesion molecule 1 (VCAM1) Biomarker Activity (AID 2283033)
# Recorded Conditions: primary human endothelial cells (HUVEC); actives raise or lower the signal
The source made the active and inactive calls. Rule for the calls: active = hit-call score of the fitted dose curve at least 0.9, where 1 is the maximum; inactive = score below 0.9.
Parameter Measured: AC50

Reference set, count: 6
compound=Cc1cc(C)nc(NC(=O)NS(=O)(=O)c2ccccc2C(=O)OC2COC2)n1 obs_value=inactive
compound=COP(=S)(OC)Oc1ccc(SC)c(C)c1 obs_value=inactive
compound=CCS(=O)(=O)c1cccnc1S(=O)(=O)NC(=O)Nc1nc(OC)cc(OC)n1 obs_value=inactive
compound="O=S1OCC2C(CO1)C1(Cl)C(Cl)=C(Cl)C2(Cl)C1(Cl)Cl (stereo unspecified)" obs_value="36.5 µM (active)"
compound=O=C(Nc1ccccc1)Nc1cnns1 obs_value=inactive
compound=CC(C)OC(=O)Nc1cccc(Cl)c1 obs_value=inactive

query: Data request, read-out AC50, for `O=[N+]([O-])c1c(Cl)c(Cl)c(Cl)c(Cl)c1Cl`
result: 19.3 µM (active)

query: Data request, read-out AC50, for `CCN(CC)C(=O)SCc1ccc(Cl)cc1`
result: inactive

query: Data request, read-out AC50, for `CNC(=O)Oc1ccccc1OC(C)C`
result: inactive

query: Data request, read-out AC50, for `COc1cc(OC)nc(NC(=O)NS(=O)(=O)c2cc(NC=O)ccc2C(=O)N(C)C)n1`
result: inactive

query: Data request, read-out AC50, for `O=C1c2ccccc2C(=O)N1SC(Cl)(Cl)Cl`
result: inactive
